Assay: NCI Yeast Anticancer Drug Screen. Data for the rad50 strain (AID 155);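 also: 0% = growth of vehicle-only cultures of the same strain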
Conditions: S. cerevisiae rad50 strain growth inhibition; at 50.0 µM; stronger effect = higher value
Experimental: Growth inhibition of yeast strains with defined genetic alterations is measured as a screen for potential anti-cancer activity. Selected strains with alterations in DNA damage repair or cell cycle control were exposed to compounds and growth inhibition was measured relative to vehicle treated controls. The strain used in this assay is rad50
Compounds without any hit were thinned out: in the full panel of roughly 79,000, 15% have a hit.
experimental-readout: growth inhibition (%)
// units = %; emit number, no label

Here's what some known entries look like.
# compound, experimental-readout, unit-abbreviation, numeric-readout
rows = [
    ("COc1ccc(-c2nn(CCO)c(=O)c(C#N)c2-c2ccc(OC)cc2)cc1", "growth inhibition", "%", 28.9),
    ("COC(=O)CCCCCCCCC(=O)OC", "growth inhibition", "%", 8.9),
    ("Clc1ccc(CSc2cnnc(SCc3ccc(Cl)c(Cl)c3)c2SCc2ccc(Cl)c(Cl)c2)cc1Cl", "growth inhibition", "%", 1.2),
    ("NC(N)=NCCCC(O)C(=O)O (stereo unspecified)", "growth inhibition", "%", -10.6),
    ("COc1ccc(C2=NC(=O)OC2(C)C)cc1", "growth inhibition", "%", -6.95),
]

# query: growth inhibition of entry C[P+](C)(C)c1ccccc1 -16.6

# query: growth inhibition of entry N#CC1(OC2OC(CO)C(O)C(O)C2O)C=CCC1 (stereo unspecified) 8.1

# query: growth inhibition of entry Cc1cc2c(c3ccccc13)Cc1ccccc1-2 -5.65

# query: growth inhibition of entry CS(=O)(=O)OC1CCCS(=O)(=O)c2ccccc21 (stereo unspecified) -12.9

# query: growth inhibition of entry Cc1ccc(CNc2ccccc2)cc1 18.9

# query: growth inhibition of entry O=C(/C=C\c1ccccc1)c1ccc(-c2cccc(-c3ccccc3)c2)cc1 -8.55

# query: growth inhibition of entry C=CCCCCCCCCC(=O)OC1CCCCC1 -9.25

# query: growth inhibition of entry O=C(O)CSC(CC(=O)O)C(=O)O (stereo unspecified) 10.3

# query: growth inhibition of entry CCCCCCC(NC(C)=O)C(=O)O (stereo unspecified) 3.85

# query: growth inhibition of entry CCCCCCCCCCCCCCCCSC(=N)N 25.2

###

Assay: NCI Yeast Anticancer Drug Screen. Data for the bub3 strain (AID 167)
Conditions: S. cerevisiae bub3 mutant strain, at 50.0 µM, stronger effect = higher value
The panel holds about 79,000 compounds, 15% with a hit somewhere; the sample as a whole holds those more often.
// values below are reported growth inhibition
// units = %; emit number, no label

# compound, growth inhibition (%)
measured = [
    ("COc1ccc(N=Nc2c(C)nn(C(=O)c3ccncc3)c2C)cc1", 11.4),
    ("CC1CN=C(c2ccccc2)C(c2ccccc2)=N1 (centres undefined)", -12.5),
    ("Cc1cccc(-c2cc(=O)c3cccnc3[nH]2)c1", -13),
    ("CC(=O)c1cc(C)ccc1Br", -7.85),
    ("C[N+](C)(N)c1nc(N)c(C#N)c(C#N)c1C#N", 5.1),
    ("CC(/C=C/c1ccccc1)=N\\NC(=S)N/N=C(C)/C=C/c1ccccc1", 49.5),
    ("COC(=O)C1C(C(=O)OC)C(C(=O)OC)C1C(=O)OC (centres undefined)", 1.4),
    ("Cc1cc2c(cc1C)[n+](=O)c(C(=O)/C=C/c1ccc3c(c1)OCO3)c(C)n2[O-]", 1.35),
]

# query: growth inhibition of entry OCCn1nnc2ccccc21 1.7
